system: Rhinovirus HGP; assay: Antiviral activity: inhibition of viral cytopathogenic effect (C.P.E.) in HeLa cell culture; format: cell-based; settings: Enterovirus, HeLa, 48 h, concentration inhibiting C.P.E. by 50% versus control culture; HeLa cells, 2 days at 33°C; read-out: IC50
property: IC50 (µg/mL)

Example results:
compound_smiles=CCOc1cc(O)c(C(=S)CCc2ccc(OC)cc2)c(OC)c1 tested_system="Rhinovirus HGP" quantity_unit=µg/mL measured=0.002
compound_smiles=C=CCOc1cc(O)c(C(=O)NCc2ccc(OC)cc2)c(OC)c1 tested_system="Rhinovirus HGP" quantity_unit=µg/mL measured=0.002
compound_smiles=C=CCOc1ccc(CNC(=O)c2c(OC)cc(OC)cc2OC(=O)CCCCCCCCCCCCCCCCC)cc1 tested_system="Rhinovirus HGP" quantity_unit=µg/mL measured=0.3
compound_smiles=COc1cccc(CNC(=O)c2c(O)cc(OC)cc2OC)c1 tested_system="Rhinovirus HGP" quantity_unit=µg/mL measured=0.002

a = C=CCOc1ccc(CNC(=O)c2c(OC)cc(OC)cc2OC(=O)c2ccccc2)cc1
b = CCOc1cc(OC)c(C(=O)NCc2ccc(OC)cc2)c(OC(C)=O)c1
Sorting by IC50 in descending order, would a or b appear first? Indicate your choice by writing its label.
b

====

experiment: Cytotoxicity in HeLa cells, observed microscopically in the antiviral test; type: cell-based; settings: human, hela cells; minimal concentration at which toxic symptoms were observed (cytotoxische Dosis); 2 days at 33°C; read-out: Cytotoxizität
property: MCC at 48 h

compound_smiles=C=CCOc1ccc(CNC(=O)c2c(OC)cc(OC)cc2OC(=O)c2ccccc2)cc1 measured="2.7 µg/mL"
compound_smiles=COc1cc(O)c(C(=O)NCc2ccco2)c(OC)c1 measured="> 8 µg/mL"
compound_smiles=COc1cc(O)c(C(=O)NCc2ccc[nH]2)c(OC)c1 measured="> 8 µg/mL"

Please fill in: MCC at 48 h reported for C=CCOc1cc(O)c(C(=O)NCc2ccc(OC)cc2)c(OC)c1 = > 8 µg/mL

Please fill in: MCC at 48 h reported for COc1cc(O)c(C(=O)NCc2ccccc2)c(OC)c1 = > 8 µg/mL

Please fill in: MCC at 48 h reported for COc1cc(O)c(C(=O)NCc2ccc3c(c2)OCO3)c(OC)c1 = > 8 µg/mL

====

test system: Rhinovirus HGP; assay: Antiviral activity: inhibition of viral cytopathogenic effect (C.P.E.) in HeLa cell culture; assay type: cell-based; conditions: Enterovirus, HeLa, 48 h, concentration inhibiting C.P.E. by 50% versus control culture; HeLa cells, 2 days at 33°C; read-out: IC50
property: IC50 (µg/mL)

Example results:
compound_smiles=CCOc1cc(O)c(C(=O)CCc2ccc(OC)cc2)c(OC)c1 quantity_unit=µg/mL measured=0.002
compound_smiles=CCOc1cc(OC)c(C(=O)CCc2ccc(OC)cc2)c(OC(C)=O)c1 quantity_unit=µg/mL measured=0.001
compound_smiles=CCOc1cc(O)c(C(=S)NCc2ccc(OC)cc2)c(OC)c1 quantity_unit=µg/mL measured=0.01
compound_smiles=COc1ccc(CNC(=O)c2c(OC)cc(OC)cc2O[C@@H]2O[C@H](COC(C)=O)[C@@H](OC(C)=O)[C@H](OC(C)=O)[C@H]2OC(C)=O)cc1 quantity_unit=µg/mL measured=2.7
compound_smiles=COc1cc(O)c(C(=O)NCc2ccncc2)c(OC)c1 quantity_unit=µg/mL measured=0.9

1 = COc1cc(O)c(C(=O)NCc2ccc(O)cc2)c(OC)c1
2 = COc1ccc(CNC(=O)c2c(OC)cc(OC)cc2OC(=O)c2ccccc2)cc1
3 = CNC(=O)c1c(O)cc(OC)cc1OC
Could you please sort these 3 entries by IC50 from high to low? Returns: the labels listed in the requested order.
3, 1, 2
(3: 0.9 µg/mL, 1: 0.3 µg/mL, 2: 0.03 µg/mL)

====

assay: Cytotoxicity in HeLa cells, observed microscopically in the antiviral test; assay type: cell-based; conditions: human, hela cells; minimal concentration at which toxic symptoms were observed (cytotoxische Dosis); 2 days at 33°C; read-out: Cytotoxizität
The entries below come with measured MCC at 48 h values attached.

compound_smiles=CCOc1cc(OC)c(C(=O)CCc2ccc(OC)cc2)c(O[C@@H]2O[C@H](CO)[C@@H](O)[C@H](O)[C@H]2O)c1 property="MCC at 48 h" measured="> 10 µg/mL"
compound_smiles=COc1cc(O)c(C(=O)NCc2cccs2)c(OC)c1 property="MCC at 48 h" measured="8 µg/mL"
compound_smiles=CNC(=O)c1c(O)cc(OC)cc1OC property="MCC at 48 h" measured="> 8 µg/mL"
compound_smiles=COc1cc(O)c(C(=O)CCc2ccc(SC)cc2)c(OC)c1 property="MCC at 48 h" measured="8 µg/mL"
compound_smiles=COc1ccc(CNC(=O)c2c(OC)cc(OC)cc2OC(=O)c2ccccc2)cc1 property="MCC at 48 h" measured="> 8 µg/mL"

Please fill in: MCC at 48 h reported for CCCCCCCCCCCCCCCCCC(=O)Oc1cc(OCC)cc(OC)c1C(=O)CCc1ccc(OC)cc1 = > 8 µg/mL

Please fill in: MCC at 48 h reported for COc1cc(O)c(C(=O)NCc2ccc(SC)cc2)c(OC)c1 = > 8 µg/mL

Please fill in: MCC at 48 h reported for CCOc1cc(OC)cc(O)c1C(=O)CCc1ccc(OC)cc1 = 0.9 µg/mL

Please fill in: MCC at 48 h reported for COc1cc(O)c(C(=O)CCc2ccc(C)o2)c(OC)c1 = > 8 µg/mL

Please fill in: MCC at 48 h reported for CCOc1cc(OC)c(C(=O)CCc2ccc(OC)cc2)c(OC(=O)c2ccccc2)c1 = > 8 µg/mL

Please fill in: MCC at 48 h reported for CCOc1cc(O)c(C(=O)NCc2ccc(OC)cc2)c(OC)c1 = > 10 µg/mL

====

assay: Cytotoxicity in HeLa cells, observed microscopically in the antiviral test; type: cell-based; conditions: human, hela cells; minimal concentration at which toxic symptoms were observed (cytotoxische Dosis); 2 days at 33°C; read-out: Cytotoxizität
The entries below come with measured MCC at 48 h values attached.

Please fill in: MCC at 48 h reported for CCOc1cc(OC)c(C(=O)NCc2ccc(OC)cc2)c(OP(=O)(O)O)c1 = > 8 µg/mL

Please fill in: MCC at 48 h reported for COc1cc(O)c(C(=O)NCc2ccncc2)c(OC)c1 = 8 µg/mL

Please fill in: MCC at 48 h reported for COc1ccc(CNC(=O)c2c(OC)cc(OC)cc2O[C@@H]2O[C@H](CO)[C@@H](O)[C@H](O)[C@H]2O)cc1 = > 10 µg/mL

Please fill in: MCC at 48 h reported for CCOc1cc(OC)c(C(=O)NCc2ccc(OC)cc2)c(OC(C)=O)c1 = > 8 µg/mL

Please fill in: MCC at 48 h reported for COc1cc(O)c(C(=O)NCc2ccc(OCc3ccccc3)cc2)c(OC)c1 = > 8 µg/mL

Please fill in: MCC at 48 h reported for CCCOc1cc(OC)c(C(=O)NCc2ccc(OC)cc2)c(OP(=O)([O-])[O-])c1.[Na+].[Na+] = > 200 µg/mL

Please fill in: MCC at 48 h reported for COc1ccc(CCC(=O)c2c(O)cc(SC)cc2OC)cc1 = 1 µg/mL

Please fill in: MCC at 48 h reported for CCCCOc1ccc(CNC(=O)c2c(O)cc(OC)cc2OC)cc1 = 8 µg/mL

Please fill in: MCC at 48 h reported for CCOc1cc(O)c(C(=S)NCc2ccc(OC)cc2)c(OC)c1 = > 8 µg/mL

Please fill in: MCC at 48 h reported for CCOc1cc(OC)c(C(=O)CCc2ccc(OC)cc2)c(OC(C)=O)c1 = > 8 µg/mL

====

The entries below come with measured MCC at 48 h values attached.
test: Cytotoxicity in HeLa cells, observed microscopically in the antiviral test; type: cell-based; conditions: human, hela cells; minimal concentration at which toxic symptoms were observed (cytotoxische Dosis); 2 days at 33°C; read-out: Cytotoxizität

Please fill in: MCC at 48 h reported for COc1ccc(CNC(=O)c2c(O)cc(OC)cc2OC)cc1 = 8 µg/mL

Please fill in: MCC at 48 h reported for COc1ccc(CNC(=O)c2c(OC)cc(OC)cc2O[C@@H]2O[C@H](COC(C)=O)[C@@H](OC(C)=O)[C@H](OC(C)=O)[C@H]2OC(C)=O)cc1 = > 10 µg/mL

Please fill in: MCC at 48 h reported for COc1cc(O)c(C(=O)CCc2ccc(C)cc2)c(OC)c1 = > 8 µg/mL

Please fill in: MCC at 48 h reported for COc1cc(O)c(C(=O)CCc2ccc3c(c2)OCO3)c(OC)c1 = > 8 µg/mL

Please fill in: MCC at 48 h reported for COc1ccc(CNC(=O)c2c(OC)cc(OC)cc2OP(=O)(O)O)cc1 = > 8 µg/mL

Please fill in: MCC at 48 h reported for CCOc1cc(OC)c(C(=O)CCc2ccc(OC)cc2)c(OP(=O)(O)O)c1 = > 10 µg/mL

Data provenance: patent EP0051819A2
